- target-under-test: T1, AXLECDHis (human, UniProt P30530 26-447)
- T1 construct: theoretical mass 46 kDa used; also called extracellular domain (ECD) of human AXL (aa 1-447) with a C-terminal His tag; soluble recombinant AXL extracellular domain
- T1 sequence (P30530 26-447): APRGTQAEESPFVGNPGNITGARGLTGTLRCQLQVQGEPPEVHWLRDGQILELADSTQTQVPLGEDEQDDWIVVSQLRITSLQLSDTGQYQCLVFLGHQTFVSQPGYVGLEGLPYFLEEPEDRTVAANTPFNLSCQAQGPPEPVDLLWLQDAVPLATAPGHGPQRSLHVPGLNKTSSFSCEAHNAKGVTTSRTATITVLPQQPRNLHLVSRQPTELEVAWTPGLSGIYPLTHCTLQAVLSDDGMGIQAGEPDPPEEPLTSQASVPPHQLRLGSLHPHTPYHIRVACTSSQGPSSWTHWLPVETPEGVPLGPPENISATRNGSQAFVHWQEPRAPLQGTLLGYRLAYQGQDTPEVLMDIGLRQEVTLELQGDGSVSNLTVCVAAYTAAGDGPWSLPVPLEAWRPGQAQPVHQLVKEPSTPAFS
- protocol-description: BLI (Octet), IgG on anti-human Fc sensor, AXLECDHis analyte
Is koff at least 0.004 s⁻¹? Then True. If not, False.

These solved cases illustrate the format of a correct answer.
[Q] Item IgG1-AXL-183-N52Q (antibody, V domains shown, Expressed as human IgG1,κ; also called IgG1-AXL-183-N520) VH: QVQLQQWGAGLLKPSETLSLTCAVYGGSFSGYYWSWIRQPPGKGLEWIGEIQQSGSTNYNPSLKSRVTISVDTSKNQFSLKLSSVTAADTSVYYCASGNWDHFFDYWGQGTLVTVSS VL: DIQMTQSPSSVSASVGDRVTITCRASQGISSWLAWYQHKPGKAPKLLIYATSSLQSGVTSRFSGSGSGTDFTLTISSLQPEDFATYYCQQAKSFPWTFGQGTKVEIK with koff of 0.004 s⁻¹ or above?
[A] False

[Q] Another binder to check: IgG1-AXL-733 (antibody, V domains shown) VH: QVQLVESGGGVVQPGRSLRLSCAASGFSFSTYAMHWVRQAPGKGLEWVAVISYDGDNKYSADSVKGRFTISRDNSKNTLYLQMNSLRAEDTAVYYCARGRKLGIDAFDIWGQGTMVTVSS VL: AIQLTQSPSSLSASVGDRVTITCRASQGISSALAWYQQKPGKAPKLLIYDASSLESGVPSRFSGSGSGTDFTLTISGLQPEDFATYYCQQFNSYPFTFGPGTKVDIK
[A] True

[Q] Another binder to check: IgG1-AXL-726-M101L (antibody, V domains shown, Expressed as human IgG1,κ) VH: QVQLQQWGAGLLKPSETLSLTCAIDGGSFSGYYWSWIRQPPGKGLEWIGEISHSGRTNYNPSLKSRVTISIDTSKNQFSLKLSSVAAADTAVYYCARFITLIRGAIITHFDYWGQGALVTVSS VL: DIQMTQSPSSLSASVGDRVTITCRASQGISSWLAWYQQKPEKAPKSLIYAASSLQSGVPSRFSGSGSGTDFTLTISSLQPEDFATYYCQQYHSYPYTFGQGTKLEIK
[A] False

[Q] Another binder to check: IgG1-AXL-726 (antibody, V domains shown) VH: QVQLQQWGAGLLKPSETLSLTCAIDGGSFSGYYWSWIRQPPGKGLEWIGEISHSGRTNYNPSLKSRVTISIDTSKNQFSLKLSSVAAADTAVYYCARFITMIRGAIITHFDYWGQGALVTVSS VL: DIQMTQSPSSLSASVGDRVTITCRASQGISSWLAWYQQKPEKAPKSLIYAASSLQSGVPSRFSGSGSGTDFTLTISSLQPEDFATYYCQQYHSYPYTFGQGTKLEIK
[A] False

[Q] Another binder to check: IgG1-AXL-148 (antibody, V domains shown) VH: EVQLLESGGGLVQPGGSLRLSCAASGFTFSSYAMTWVRQAPGKGLEWVSAISISGGSTFYADSVKGRFTISRDNSKNTLYLQMNSLRAEDTAVYYCRGYSGYVYDAFDFWGQGTMVTVSS VL: DIQMTQSPSSLSASVGDRVTITCRASQGISNWLAWYQQKPEKAPKSLIYAASSLQSGVPSRFSGSGSGTDFTLTISSLQPEDFATYYCQQYNSYPLTFGGGTKVEIK
[A] True

Proceed to the following item.
[Q] Item IgG1-AXL-183 (antibody, V domains shown) VH: QVQLQQWGAGLLKPSETLSLTCAVYGGSFSGYYWSWIRQPPGKGLEWIGEINQSGSTNYNPSLKSRVTISVDTSKNQFSLKLSSVTAADTSVYYCASGNWDHFFDYWGQGTLVTVSS VL: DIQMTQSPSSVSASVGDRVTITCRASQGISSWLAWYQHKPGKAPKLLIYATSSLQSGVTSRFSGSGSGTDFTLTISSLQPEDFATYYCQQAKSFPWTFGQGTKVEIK with koff of 0.004 s⁻¹ or above?
[A] False
